# measurementNotes: growth modulation of vineyard yeast isolate – strain RM11-1a, OD600, basal, 24 h, primary screen (AID 1177);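 further: cultures grown under basal conditions with no added stressor; test concentration not given here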
# recordedConditions: S. cerevisiae RM11-1a growth, OD600, 24 h; higher = more signal, called active from +8 up or from −8 down
Hi all, reminder that labels come from z-score, split as L = under -0.01, M = from -0.01 up to 0.7, H = 0.7 and over

[
  {
    "compound": "Cc1ccc(S[C@]2(C(=O)NCCN3CCOCC3)CC(=O)N(Cc3ccccc3Cl)[C@@H]2c2ccc(CO)cc2I)cc1",
    "labelClass": "L"
  },
  {
    "compound": "CN(C)C(=O)[C@]1(Cc2ccccc2CN=[N+]=[N-])N=C(c2ccc(OCCCO)cc2)O[C@@H]1c1ccccc1",
    "labelClass": "H"
  },
  {
    "compound": "COc1cc(C(O)C2C=CC3C(=O)N(C)C(=O)C3N2Nc2ccccc2)cc(OC)c1OC (stereo unspecified)",
    "labelClass": "M"
  },
  {
    "compound": "COC(=O)[C@@]1(Cc2ccc(OC)cc2)[C@H]2c3cc(C(=O)N4CCCC4)n(CCO)c3C[C@H]2CN1C(=O)c1ccccc1",
    "labelClass": "H"
  },
  {
    "compound": "O=C(O)[C@@H]1C[C@@H]2C(=O)N3CCC[C@H]3C(=O)N2[C@@H]1c1ccc(O)cc1",
    "labelClass": "L"
  },
  {
    "compound": "CCCC[C@@H]1C[C@H]1[C@@H](NC(=O)c1cccs1)c1ccccc1C(F)(F)F",
    "labelClass": "H"
  },
  {
    "compound": "C=CC[C@]1(C(=O)N2CCCCC2)N=C(c2ccc(OCCCO)cc2)O[C@H]1c1ccccc1CN=[N+]=[N-]",
    "labelClass": "M"
  },
  {
    "compound": "CC1CC/C=C\\[C@H]2OC34C=CCN(c5ccc(Cl)cc5)C(=O)[C@H]3N(C(C)CO)C(=O)[C@]4(C)C2C(=O)O1 (stereo partly specified)",
    "labelClass": "M"
  }
]

Task item: Which class does C=CCN1C(=O)[C@]2(CCC(=O)OC(C)(C)C)N=C(c3ccc(OCCCO)cc3)O[C@@H]2c2ccccc21 fall in?
Reply: H

Task item: Pick a category. Item: N#Cc1ccc(NN2C(C(O)c3ccc(Br)cc3)C=CC3C(=O)N(c4ccccc4)C(=O)C32)cc1 (stereo unspecified)
Reply: L

Task item: Pick a category. Item: [N-]=[N+]=Nc1ccccc1C[C@]1(C(=O)N2CCOCC2)COC(c2ccc(OCCCO)cc2)=N1
Reply: L

Task item: Which z-score category applies to N[C@@H](Cc1ccccc1)C(=O)NCc1cn(Cc2ccccc2)nn1 here?
Reply: L

Task item: Categorize the following entry: C=CC[C@@]1(C(=O)NCCCOC)N=C(c2ccc(OCCCO)cc2)O[C@@H]1c1ccccc1N=[N+]=[N-]
Reply: M

Task item: Lab log: CC1CC/C=C\[C@H]2OC34C=CCN(C(C)C)C(=O)[C@H]3N(CCO)C(=O)[C@@H]4C2C(=O)O1 (stereo partly specified) — assign z-score category
Reply: M

Task item: For CCCCCN1CC=CC23O[C@@H]4/C=C\CCC(C)OC(=O)C4[C@H]2C(=O)N(C(CO)C(C)C)[C@@H]3C1=O (stereo partly specified) , which z-score bin applies?
Reply: L

Task item: Exam item: assign COc1ccc([Si](C)(C)[C@@H]2[C@@H](CCO)O[C@]3(C(=O)N(Cc4cccc(NC(=O)[C@H](C)O)c4)c4ccccc43)[C@H]2C)cc1 to the correct category.
Reply: H
